test system: EPHB2; conditions: concentration: 1 μM,replicates: in singlicate; n = 1;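 further: KINOMEscan kinase panel screen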
ASSAY_READOUT: %Inh (%)
Hi! Could you send only the number? It should be in %, unit omitted.

INSERT INTO assay_data (compound, recorded_result) VALUES
  ('CC(C(=O)NC1CCN(c2ccnc(Nc3ccc(F)cc3)n2)C1)c1ccc(Cl)cc1 (stereo not shown)', 0),
  ('COc1cccc(CNC(=O)NC2CCN(c3ccnc(Nc4cc(OC)c(OC)c(OC)c4)n3)C2)c1 (stereo not shown)', 0),
  ('CC(C)S(=O)(=O)N1CCN(Cc2ccc3c(c2)nc(NC(=O)c2ccsc2)n3C[C@H](O)c2ccccc2)CC1', 16),
  ('CCOC(=O)N1CCC(n2cnc(-c3ccc(F)cc3)c2-c2ccnc(N)n2)CC1', 7),
  ('C[C@@H](Oc1cc(-n2cnc3cc(-c4ccncc4)ccc32)sc1C(N)=O)c1ccccc1Cl', 0),
  ('Cc1ccc2c(-c3ccnc(Nc4ccc(C(F)(F)F)cc4)n3)cnn2n1', 0);

Consider the record given below.
QUERY: Entry under review: CN1CCN(CCCNc2nccc(-c3c(-c4ccc(F)cc4)nn4cc(C(N)=O)ccc34)n2)CC1 . Reported %Inh?
RESULT: 26
